Cited source for all entries: paper PMC7055224

biological target: firefly-Luciferase (Photinus pyralis); construct: purchased Sigma-Aldrich (St. Louis, MO); test: Luciferase (biochemical) qHTS assay, tox21-luc-biochem-p1, cell-free; details: after filtering; no unit printed in the sheet; read-out: Luc_IC50
Value Kind: IC50 (nM)
Numbers only here, please. The scale is nM.

Lab note: compound `[O-][n+]1ccccc1S` tested on firefly-Luciferase (Photinus pyralis); recorded IC50 was 481

* * *

biological target: firefly-Luciferase (Photinus pyralis, UniProt P08659); construct: purchased Sigma-Aldrich (St. Louis, MO); assay: Luciferase (biochemical) qHTS assay, tox21-luc-biochem-p1, cell-free; settings: estimated, based on triplicate measurements; read-out: IC50
Sequence (P08659 whole entry): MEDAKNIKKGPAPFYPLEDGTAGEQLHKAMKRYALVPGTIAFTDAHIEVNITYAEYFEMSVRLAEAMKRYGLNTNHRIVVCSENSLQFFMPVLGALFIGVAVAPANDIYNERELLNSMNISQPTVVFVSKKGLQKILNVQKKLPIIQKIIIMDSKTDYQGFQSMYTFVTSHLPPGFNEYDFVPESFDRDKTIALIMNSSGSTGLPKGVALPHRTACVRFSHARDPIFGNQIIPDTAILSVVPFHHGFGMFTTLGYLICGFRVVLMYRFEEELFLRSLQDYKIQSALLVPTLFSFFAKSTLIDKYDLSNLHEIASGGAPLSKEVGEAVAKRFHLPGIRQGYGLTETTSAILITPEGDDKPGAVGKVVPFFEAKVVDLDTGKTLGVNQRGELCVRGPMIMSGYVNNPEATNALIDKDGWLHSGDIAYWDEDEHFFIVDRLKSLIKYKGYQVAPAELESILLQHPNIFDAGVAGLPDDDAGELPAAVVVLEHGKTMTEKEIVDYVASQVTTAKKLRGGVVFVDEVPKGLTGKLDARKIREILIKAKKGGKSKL
pIC50: −log10 of the molar value.
Value Kind: pIC50

Notebook: `O=C(O)c1cccc(-c2noc(-c3ccccc3F)n2)c1` , pIC50 read as > 7.70
